Test: NCI Yeast Anticancer Drug Screen. Data for the mec2-1 strain (AID 157)
Settings: S. cerevisiae mec2-1 strain, at 5.0 µM (retest, dose inferred, filed as 0.5), active compounds read high
Compounds without any hit were thinned out: in the full panel of roughly 79,000, 15% have a hit. The source made the active and inactive calls. Cut-off read from the data, not from the text of the source: active = growth inhibition above about 70%; inactive = the rest.
Endpoint: growth inhibition

Sample records with growth inhibition:
Molecule | growth inhibition
COc1cc(/C=C2\CCc3ccccc3C2=O)cc(OC)c1OC | -11% (inactive)
CC(=O)Nc1ccc(SC(C)=O)cc1 | 72% (active)

Record request: growth inhibition value, item `O=C(c1cc(Br)ccc1O)c1cc(Br)ccc1O` 20% (inactive)

Can you check `CC(C)[N+]([O-])(CCCNc1c2ccccc2nc2cccc([N+](=O)[O-])c12)C(C)C` next? 68% (inactive)

Can you check `Cc1ccc2ccc(O)cc2c1` next? -10% (inactive)

Can you check O=C(O)C1OC1(c1cccc(Cl)c1)c1ccccc1Cl (centres undefined) next? 57% (inactive)

Can you check `CC(=O)OCc1ccc(O)c(C=O)c1` next? 0% (inactive)

Can you check OCC1OC(OCC(O)C(O)C(O)C(/C=N/Nc2ccccc2)=N/Nc2ccccc2)C(O)C(O)C1O (centres undefined) next? 1% (inactive)

Can you check `O=C1c2ccccc2-c2nc3ccccc3nc21` next? 83% (active)

Can you check `[N-]=[N+]=NC1=C(c2ccccn2)C(=O)c2cccc3cccc1c23` next? -5% (inactive)

* * *

Assay: NCI Yeast Anticancer Drug Screen. Data for the sgs1 strain (AID 173);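 note: 0% = growth of vehicle-only control cultures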
Conditions: S. cerevisiae sgs1 mutant, at 33.0 µM, active compounds read high
About 79,000 compounds went through this panel and 15% of them were active in at least one assay; those are over-represented in the sample as a whole.
Listed below: growth inhibition values for each entry.
Supply the numeric figure in %, leaving out any unit text.

Sample records with growth inhibition:
Compound | Endpoint | Measurement
Cc1ccc(-n2cc(-c3ccc(Cl)cc3)c(C#N)c2N)cc1 | growth inhibition | 10
Cc1ccc(CCC2=CCCc3c2ccc2ccccc32)cc1 | growth inhibition | 0
O=[N+]([O-])c1ccc2c(c1)C(N1CCN(CCO)CC1)Cc1ccc(F)cc1S2 (stereo not drawn) | growth inhibition | 0
Cn1c(N)nc(-c2ccc(Cl)cc2)c1SSc1c(-c2ccc(Cl)cc2)nc(N)n1C | growth inhibition | 85

Record request: growth inhibition value, item `N#C/C(=C\c1cccc(OCc2ccccc2)c1)c1ccc([N+](=O)[O-])cc1` -54

Can you check `NC(=S)N/N=C\c1nccc2ccccc12` next? 99

Can you check `O=C(/C=C\c1ccc(Cl)cc1Cl)c1cccs1` next? 33

Can you check `Cc1c(C(=O)C(=O)c2ccccc2)c(C)c(C(=O)C(=O)c2ccccc2)c(C)c1C(=O)C(=O)c1ccccc1` next? -5

Can you check `CC(=O)Nc1ccc2c(c1)C(=Nc1ccc(C(=O)O)cc1)c1ccccc1-2` next? 25

Can you check `Brc1ccc(-c2cc3c(cc2C2SCCS2)OCO3)cc1` next? 52

Can you check `Cc1nn(-c2cc(Cl)ccc2[N+](=O)[O-])c(C)c1Cl` next? -1

Can you check CCCCCCCCCCC1CCC(=O)O1 (stereo not drawn) next? 20

Can you check `O=[N+]([O-])c1cccc2nc3ccccc3c(NCCCN3CCOCC3)c12` next? 97

Can you check C(CCSC1=NCCN1)CSC1=NCCN1 (tested in a mixture with another compound) next? 99

Can you check `CC(=O)[O][Bi]([c]1ccccc1)[c]1ccccc1` next? 88

Can you check `O=Nc1cccnc1N=O` next? 99

Can you check CCC(C(=O)O)C1=C(c2ccccc2)CCc2ccccc21 (stereo not drawn) next? 99

Can you check CC(Br)C(=O)c1ccc2cc(Br)c3ccccc3c2c1 (stereo not drawn) next? 17

Can you check CN1CCc2ccccc2C1Cc1ccccc1NC(=O)c1sc2ccccc2c1Cl (stereo not drawn) next? 90

Can you check `CSC1=NNC(SC)=NN1` next? 75

Can you check `CC1=NN(c2cccc(Cl)c2)C(=O)C1` next? 4

Can you check `O=C(c1ccc(Cl)cc1Cl)C(Cl)Cl` next? 80
